# System: HLA-A*02:01 (Homo sapiens, UniProt P04439, D140Y/D185E/D98H/E176V/E277Q/G131W/G231S/I119V/I121R/I166T/I218V/L300P/L318F/N151K/N90K/P208A/P217A/Q86G/Q94H/R138H/R169H/T345S)
# Assay procedure: MHC binding assay: UV-ligand exchange with beta2m ELISA (exchange yield)
# Measurement setup: binding to HLA-A*02:01, β2m ELISA
Measure: Peptide exchange (MHC class I binding score, peptide exchange yield)

Use the examples below as a reference point.
| Substance | Experimental result |
| --- | --- |
| 217 (ALIHPVSTV; listed as Homo sapiens) [compound 217] | “++” (≥20% = ++) |
| 622 (RLLGEEVVRVLQA; listed as Homo sapiens) [compound 622] | “+++” (≥50 = +++) |
| 127 (KIGDEPPKV; listed as Homo sapiens) [compound 127] | “++” (≥20% = ++) |
| 560 (ALWDIETGQQTTT; listed as Homo sapiens) [compound 560] | “+++” (≥50 = +++) |

Now consider a different substance.
Quick check: Peptide exchange (MHC class I binding score, peptide exchange yield) of 450 (FMIDASVHPTL; listed as Homo sapiens) [compound 450] ?
“+++” (≥50 = +++)
